// read-out pIC50, gathered for Substance-P receptor (Homo sapiens, UniProt P25103) from published studies
pIC50: −log10 of the molar value.
ASSAY ENDPOINT: pIC50

# COMPOUND, MEASURED TARGET, ASSAY ENDPOINT, MEASURED VALUE
rows = [
    ("O=C(N[C@@H](Cc1c[nH]c2ccccc12)C(=O)OCc1cccc(C(F)(F)F)c1)c1ccccc1", "Substance-P receptor (Homo sapiens, UniProt P25103)", "pIC50", 7.21),
    ("O=C1CCC(CCCN2CCC(n3c(=O)[nH]c4ccccc43)CC2)(c2ccc(Cl)c(Cl)c2)CN1Cc1ccccc1 (stereo not drawn)", "Substance-P receptor (Homo sapiens, UniProt P25103)", "pIC50", 6.13),
    ("CCC[C@](Cc1c[nH]c2ccccc12)(NC(=O)OCc1cc2ccccc2o1)C(=O)N[C@@H](C)c1ccccc1", "Substance-P receptor (Homo sapiens, UniProt P25103)", "pIC50", 9.07),
    ("CN(CC(N)=O)C[C@@H]1CC[C@H](OCc2cc(C(F)(F)F)cc(C(F)(F)F)c2)[C@H]1c1ccccc1 (racemic)", "Substance-P receptor (Homo sapiens, UniProt P25103)", "pIC50", 8.72),
    ("COc1ccc(-n2nnnc2C(F)(F)F)cc1CN[C@H]1CCN(C(=O)NCC(F)(F)F)C[C@H]1c1ccccc1 (racemic)", "Substance-P receptor (Homo sapiens, UniProt P25103)", "pIC50", 10.24),
    ("Cc1cc(C)cc(C(=O)N2C3C=C(c4ccccc4)C2CC(NCc2ccnc4ccccc24)C3)c1 (racemic)", "Substance-P receptor (Homo sapiens, UniProt P25103)", "pIC50", 6.00),
    ("COC[C@](Cc1c[nH]c2ccccc12)(NC(=O)OCc1cc2ccccc2o1)C(=O)N[C@@H](C)c1ccccc1", "Substance-P receptor (Homo sapiens, UniProt P25103)", "pIC50", 9.15),
    ("O=C(Cc1cc(C(F)(F)F)cc(C(F)(F)F)c1)NCC(c1cc(Cl)cc(Cl)c1Cl)N1CCC(N2CCCCC2)CC1 (stereo not drawn)", "Substance-P receptor (Homo sapiens, UniProt P25103)", "pIC50", 8.19),
]

---

// read-out pIC50, gathered for Substance-P receptor (Homo sapiens) from published studies
pIC50: −log10 of the molar value.
ASSAY ENDPOINT: pIC50

# COMPOUND, ASSAY ENDPOINT, MEASURED VALUE
measured = [
    ("CN(C)c1ccccc1CC(=O)N1C[C@H]2[C@@H](C1)C(c1ccccc1)(c1ccccc1)SC[C@@H]2O", "pIC50", 6.43),
    ("COC(=O)N[C@H]1CC[C@H](OCc2cc(C(F)(F)F)cc(C(F)(F)F)c2)[C@@H]1c1ccccc1 (racemic)", "pIC50", 8.28),
    ("CCNC(=O)N1CC[C@@H](NCc2cc(OC(F)(F)F)ccc2OC)[C@H](c2ccccc2)C1 (racemic)", "pIC50", 8.43),
    ("Cc1cnc(C(=O)N2C[C@@H](O[C@H](C)c3cc(C(F)(F)F)cc(C(F)(F)F)c3)[C@H](c3ccc(F)cc3)C2)cn1", "pIC50", 9.92),
    ("COC(=O)N1CC[C@H](NCc2cc(-n3nnnc3C(F)(F)F)ccc2OC)[C@H](c2ccccc2)C1 (racemic)", "pIC50", 10.27),
    ("COc1ccccc1[C@H](C)C(=O)N1C[C@@H]2[C@H](C1)[C@@](O)(c1ccccc1OC)CSC2(c1ccccc1)c1ccccc1", "pIC50", 7.42),
    ("COc1ccccc1[C@H](SC)C(=O)N1CC2C(=O)CSC(c3ccccc3)(c3ccccc3)C2C1 (some centres not stated)", "pIC50", 7.82),
]
